test_system: RET(KD: 658-1114 G810R) (Homo sapiens, UniProt P07949, G810R)
Construct: 658-1114; expressed in transfected cells; host or cells: 293T.165 (293T cells, generated in-house)
Sequence (P07949 658-1114 G810R): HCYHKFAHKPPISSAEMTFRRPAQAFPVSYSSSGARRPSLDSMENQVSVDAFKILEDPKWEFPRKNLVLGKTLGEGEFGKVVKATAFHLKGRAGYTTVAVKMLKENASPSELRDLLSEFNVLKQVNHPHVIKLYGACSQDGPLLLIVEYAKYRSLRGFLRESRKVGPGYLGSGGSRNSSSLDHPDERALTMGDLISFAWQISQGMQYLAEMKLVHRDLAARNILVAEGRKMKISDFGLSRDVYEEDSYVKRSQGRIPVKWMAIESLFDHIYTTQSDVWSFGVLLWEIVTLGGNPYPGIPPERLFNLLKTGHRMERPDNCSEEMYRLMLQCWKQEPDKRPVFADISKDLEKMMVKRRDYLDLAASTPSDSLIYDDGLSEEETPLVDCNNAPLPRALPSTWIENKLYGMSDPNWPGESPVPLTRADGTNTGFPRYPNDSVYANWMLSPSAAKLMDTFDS
test_description: HiBiT-Degradation, RET G810R degradation assay (Nano-Glo HiBiT Lytic), 293T.165 cells
Assay type: cell-based
assay_setup: RET G810R
readout_type: HiBiT-Degradation 293T.165 RET(KD: 658-1114 G810R) 6.0 hours (IP) [nM]

molecule="CCC1(C(=O)NC(C)C)CCN(c2ccc(-c3cc(-c4cnn([C@H]5CC[C@@H](N6CCC(c7ccc(NC8CCC(=O)NC8=O)cc7F)CC6)CC5)c4)cn4ncc(C#N)c34)cn2)CC1 (some centres unmarked) [Compound 88]" obs_value="++++ (< 50 nM = ++++)"
molecule="CCC1(C(=O)NC(C)C)CCN(c2ccc(-c3nc(-c4cnn(C5CCN(C(=O)CC6(O)CCN(c7ccc(N[C@@H]8CCC(=O)NC8=O)cc7F)CC6)CC5)c4)cn4ncc(C#N)c34)cn2)CC1 (single isomer, unassigned) [Compound 79]" obs_value="++++ (< 50 nM = ++++)"

====

Listed here are compounds together with their documented Emax.
test_system: RET(KD: 658-1114 G810R) (Homo sapiens, UniProt P07949, G810R)
Construct: 658-1114; expressed in transfected cells; host or cells: 293T.165 (293T cells, generated in-house)
test_description: HiBiT-Degradation, RET G810R degradation assay (Nano-Glo HiBiT Lytic), 293T.165 cells
Format: cell-based
assay_setup: 6.0 hours, % remaining protein, read-out: 293T.165 RET(KD: 658-1114 G810R) 6.0 hours (Emax)
readout_type: Emax

compound="CCC1(C(=O)NC(C)C)CCN(c2ccc(-c3cc(-c4cnn(C5CCN(C(=O)CN6CCN(c7ccc(NC8CCC(=O)NC8=O)cc7F)CC6)CC5)c4)cn4ncc(C#N)c34)cn2)CC1 (stereo not drawn) [Compound 66]" test_system="RET(KD: 658-1114 G810R) (Homo sapiens, UniProt P07949, G810R)" obs_value="< 30%"
compound="COc1ccc(CN2[C@@H]3COC[C@H]2CN(c2ccc(-c4nc(-c5cnn([C@H]6CC[C@@H](N7CCN(c8cc9c(cc8F)c(N8CCC(=O)NC8=O)nn9C)CC7)CC6)c5)cn5ncc(C#N)c45)cn2)C3)cn1 (single isomer, unassigned) [Compound 152]" test_system="RET(KD: 658-1114 G810R) (Homo sapiens, UniProt P07949, G810R)" obs_value="< 30%"
compound="CC(=O)N1CCN(c2ccc(-c3cc(-c4ccc(N5CCN(C(=O)CN6CCC(c7ccc(NC8CCC(=O)NC8=O)cc7)CC6)CC5)cc4)cn4ncc(C#N)c34)cn2)CC1 (stereo not drawn) [Compound 41]" test_system="RET(KD: 658-1114 G810R) (Homo sapiens, UniProt P07949, G810R)" obs_value="< 50%"
compound="CCC1(C(=O)NC2CCC2)CCN(c2ccc(-c3nc(-c4cnn([C@H]5CC[C@H](N6CCN(c7cc(OC)c(N[C@H]8CCC(=O)NC8=O)cc7F)CC6)CC5)c4)cn4ncc(C#N)c34)cn2)CC1 (single isomer, unassigned) [Compound 134]" test_system="RET(KD: 658-1114 G810R) (Homo sapiens, UniProt P07949, G810R)" obs_value="< 30%"
compound="N#Cc1cnn2cc(-c3ccc(N4CCN(C(=O)CN5CCC(c6ccc(NC7CCC(=O)NC7=O)cc6F)CC5)CC4)nc3)cc(-c3ccc(N4CCN(Cc5ccccn5)CC4)nc3)c12 (stereo not drawn) [Compound 67]" test_system="RET(KD: 658-1114 G810R) (Homo sapiens, UniProt P07949, G810R)" obs_value="< 50%"
compound="N#Cc1cnn2cc(-c3cnn(C4CCN(C(=O)CC5(O)CCN(c6ccc(NC7CCC(=O)NC7=O)cc6F)CC5)CC4)c3)nc(-c3ccc(N4CCC(O)(Cc5ccccc5)CC4)nc3)c12 (stereo not drawn) [Compound 117]" test_system="RET(KD: 658-1114 G810R) (Homo sapiens, UniProt P07949, G810R)" obs_value="< 30%"
compound="CCC1(C(=O)NC2CCC2)CCN(c2ccc(-c3nc(-c4cnn([C@H]5CC[C@H](N6CCC(c7ccc(N[C@@H]8CCC(=O)NC8=O)cc7Cl)CC6)CC5)c4)cn4ncc(C#N)c34)cn2)CC1 (single isomer, unassigned) [Compound 131]" test_system="RET(KD: 658-1114 G810R) (Homo sapiens, UniProt P07949, G810R)" obs_value="< 30%"
compound="CC(=O)N1CCN(c2ccc(-c3cc(-c4cnn(C5CCN(C(=O)CN6CCC(c7ccc(NC8CCC(=O)NC8=O)cc7)CC6)CC5)c4)cn4ncc(C#N)c34)cn2)CC1 (stereo not drawn) [Compound 42]" test_system="RET(KD: 658-1114 G810R) (Homo sapiens, UniProt P07949, G810R)" obs_value="< 50%"
compound="N#Cc1cnn2cc(-c3cnn(C4CCN(C(=O)CN5CCC(c6ccc(NC7CCC(=O)NC7=O)cc6F)CC5)CC4)c3)cc(-c3ccc(N4CC5CC(C4)N5Cc4cccnc4)nc3)c12 (stereo not drawn) [Compound 68]" test_system="RET(KD: 658-1114 G810R) (Homo sapiens, UniProt P07949, G810R)" obs_value="< 30%"
